Target under test: T1, human neuropeptide Y2 receptor (human, UniProt P49146 1-381)
T1 sequence (looked up): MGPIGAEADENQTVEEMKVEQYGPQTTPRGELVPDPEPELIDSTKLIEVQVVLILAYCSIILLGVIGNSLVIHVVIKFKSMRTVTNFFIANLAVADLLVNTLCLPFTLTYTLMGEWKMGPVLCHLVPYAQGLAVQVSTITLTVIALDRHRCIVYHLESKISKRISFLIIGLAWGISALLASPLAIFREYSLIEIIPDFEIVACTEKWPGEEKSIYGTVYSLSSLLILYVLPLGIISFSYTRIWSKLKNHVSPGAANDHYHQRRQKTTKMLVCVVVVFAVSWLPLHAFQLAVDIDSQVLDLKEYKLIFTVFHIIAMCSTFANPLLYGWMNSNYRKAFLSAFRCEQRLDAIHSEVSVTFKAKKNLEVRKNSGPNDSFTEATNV
Procedure text: cell-based or functional assay
Starred links: 1 amine or outer side, 2 acyl side, 3 side chain; linkers in the order of their positions; H or OH if unused. Non-standard residues stand in square brackets, D forms with d. Groups on a side chain read outwards from the residue. No end group written: not given here. *: point of attachment. C18 diacid = O=C(O)CCCCCCCCCCCCCCCCC(=O)*; γGlu = O=C(O)[C@H](CCC(=O)[*:2])N[*:1]; εLys = N[C@@H](CCCCN[*:1])C(=O)[*:2]; AEEA = NCCOCCOCC(=O)O; Aib = CC(C)(N)C(=O)O
Rule: EC50 CreLuc hNPY2R 100% hP below 50 nM gives t. Equal to or above 50 nM gives f.

{"columns": ["Binder", "Assigned category"],
 "data": [
  ["Y[Aib]EGTFTSDYSI[Aib]LEEQAQ[Aib]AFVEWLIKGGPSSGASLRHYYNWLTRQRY-NH2 (not fully specified (residue 28)) [Compound 105]", "f"],
  ["YXEGTFTSDYSIXLEKQAQXAFVEWLIKGGPSSGASIRHYYNWLTRQRY (Aib at 2, 13, 20; K28 side chain: C20DA-gGlu-gGlu-gGlu-gGlu-gGlu-gGlu-eLys; C-terminal NH2) [Compound 132]", "t"],
  ["YXEGTFTSDYSIXLEQQAQXAFVEWLIKGGPSSGASLRHYYNWLTRQRY (Aib at 2, 13, 20; K28 side chain: C20DA-gGlu-gGlu-gGlu-gGlu-Glu-gGlu-eLys; C-terminal NH2) [Compound 124]", "t"],
  ["YXEGTFTSDYSIXLEKQAQXAFVEWLIKGGPSSGASLXHYYNWLTRQRY (Aib at 2, 13, 20, 38; K28 side chain: C20DA-gGlu-gGlu-gGlu-gGlu-gGlu-gGlu-eLys; C-terminal NH2) [Compound 129]", "f"],
  ["YXEGTFTSDYSIXLEKQAQXAFVQWLIKGGPSEPASLRHYYNWLTRQRY (Aib at 2, 13, 20; K28 side chain: C18DA-gGlu-gGlu-gGlu-gGlu-gGlu-OEG-OEG; C-terminal NH2) [Compound 142]", "t"],
  ["Y[Aib]EGTFTSDYSI[Aib]LEKQAE[Aib]AFVQWLIK([AEEA-AEEA-γGlu-γGlu-γGlu-γGlu-C18 diacid])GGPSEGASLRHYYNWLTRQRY-NH2 [Compound 156]", "t"],
  ["Y[Aib]EGTFTSDYSI[Aib]LEKQAE[Aib]AFVQWLIK([εLys-γGlu-γGlu-γGlu-γGlu-γGlu-C18 diacid])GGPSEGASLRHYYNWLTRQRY-NH2 [Compound 138]", "t"],
  ["Y[Aib]EGTFTSDYSI[Aib]LEKQAQ[Aib]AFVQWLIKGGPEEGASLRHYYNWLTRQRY-NH2 (not fully specified (residue 28)) [Compound 108]", "f"]
]}

From: patent US20240247080A1
